# System: Escherichia coli
# test.protocol: Antimicrobial activity against Escherichia coli after 24 hrs by spectrophotometry
# Type: functional
Quick reference: MIC of the listed items.
test.readout: MIC

>>> obs_value("CCOC(=O)C1C(c2ccc(O)cc2)NC(=O)NC1(O)C(F)(F)F (stereo not drawn)")
"≥ 20 mg/mL"
>>> obs_value("CCOC(=O)C1C(c2ccc(N(C)C)cc2)NC(=S)NC1(O)C(F)(F)F (stereo not drawn)")
"≥ 20 mg/mL"
>>> obs_value("CCOC(=O)C1C(c2ccccc2)NC(=S)NC1(O)C(F)(F)F (stereo not drawn)")
"≥ 15 mg/mL"

====

# Tested on: Escherichia coli
# test.protocol: Antimicrobial activity against Escherichia coli after 24 hrs by spectrophotometry
# Type: functional
Quick reference: MIC of the listed items.
test.readout: MIC

>>> obs_value("CCOC(=O)C1C(c2ccc(C)cc2)NC(=O)NC1(O)C(F)(F)F (stereo unspecified)")
"≥ 20 mg/mL"
>>> obs_value("CCOC(=O)C1C(c2cccs2)NC(=O)NC1(O)C(F)(F)F (stereo unspecified)")
"≥ 20 mg/mL"
>>> obs_value("CCOC(=O)C1C(c2ccc(OC)cc2)NC(=S)NC1(O)C(F)(F)F (stereo unspecified)")
"≥ 15 mg/mL"
>>> obs_value("CCOC(=O)C1C(c2ccc(Cl)cc2)NC(=O)NC1(O)C(F)(F)F (stereo unspecified)")
"≥ 15 mg/mL"
>>> obs_value("CCOC(=O)C1C(c2ccc(C)cc2)NC(=S)NC1(O)C(F)(F)F (stereo unspecified)")
"≥ 20 mg/mL"
>>> obs_value("CCOC(=O)C1C(c2ccc(O)cc2)NC(=S)NC1(O)C(F)(F)F (stereo unspecified)")
"≥ 20 mg/mL"
